What Population Mitotic Cells (%) was measured for each of the following?
- System: Fibroblast
- test-protocol: Multiplex assay against human fibroblast
- Type: toxicity, cell-based
- condition-set: 48 h, 10 µM, compound concentration 10 uM, replicate 2
Numbers only, in %.

Use the examples below as a reference point.
compound | endpoint | experimental-value
CCC(=O)O[C@]1(C(=O)SCF)[C@H](C)C[C@H]2[C@@H]3C[C@H](F)C4=CC(=O)C=C[C@]4(C)[C@@]3(F)[C@@H](O)C[C@@]21C [FLUTICASONE PROPIONATE] | Population Mitotic Cells (%) | 0
Nc1ccc(C(=O)Nc2cccc(-c3nc(N4CCOCC4)c4oc5ncccc5c4n3)c2)cn1 | Population Mitotic Cells (%) | 0
COc1cc(N2CCC(N(C)C)CC2)ccc1Nc1ncc(Cl)c(Nc2ccccc2P(C)(C)=O)n1 | Population Mitotic Cells (%) | 33
Nc1nc2c(c(N3CCNCC3)n1)CCC1=C2[C@@H]2CCCC[C@@H]2O1 | Population Mitotic Cells (%) | 61
CCCn1c(=O)c2[nH]c(C34CC5CC(CC3C5)C4)nc2n(CCC)c1=O | Population Mitotic Cells (%) | 50

Count: 5. Required value per item: Population Mitotic Cells (%).
1. Cc1cc2c(cc1N1C(=O)c3cccc4c(CCCO)ccc(c34)C1=O)n(C)c(=O)n2C
2. C1=N/C2=N/c3ccc(OCCN4CCCC4)c(c3)COC/C=C\COCc3cccc(c3)C(=C1)N2
3. CC(=O)c1cc(-c2cc(C(=O)NC3CC3)ccc2C)c2ncccn12
4. CC(C)N1CCC(C)(C)c2cc(C#Cc3ccc(C(=O)O)cc3)ccc21
5. COc1ccc(NS(=O)(=O)c2sc3ccc(Cl)cc3c2C)cc1N1CCNCC1.Cl

Reply:
33
5
25
0
6

---

- Tested on: HEK-293T
- test-protocol: Multiplex assay against HEK293T
- Type: toxicity, cell-based
- condition-set: human, 48 h, 10 µM, compound concentration 10 uM, replicate 1
Please respond with reported Population Fragmented Nuclei (%) for every item in the list.
One number for each entry, in %.

Worked examples follow.
compound | readout-unit | Population Fragmented Nuclei (%)
C1=N/C2=N/c3ccc(OCCN4CCCC4)c(c3)COC/C=C\COCc3cccc(c3)C(=C1)N2 | % | 37
CC(C)N1CCC(C)(C)c2cc(C#Cc3ccc(C(=O)O)cc3)ccc21 | % | 57

List Population Fragmented Nuclei (%) for every entry below, keeping the order given.
1. CC(=O)c1cc(-c2cc(C(=O)NC3CC3)ccc2C)c2ncccn12
2. CNC(=O)c1nn(C)c2c1C(C)(C)Cc1cnc(Nc3ccc(N4CCN(C)CC4)cc3)nc1-2 [MILCICLIB]
3. Nc1nc2c(c(N3CCNCC3)n1)CCC1=C2[C@@H]2CCCC[C@@H]2O1
4. O=C(O)c1ccc2cc(-c3ccc(O)c(C45CC6CC(CC(C6)C4)C5)c3)ccc2c1 [O-DEMETHYLATED ADAPALENE]
5. COc1cc(N2CCC(N(C)C)CC2)ccc1Nc1ncc(Cl)c(Nc2ccccc2P(C)(C)=O)n1
6. Nc1ccc(C(=O)Nc2cccc(-c3nc(N4CCOCC4)c4oc5ncccc5c4n3)c2)cn1
7. CC(C)Oc1ccc(C(=O)N[C@H](CNC(=O)CN(C)C)Cc2ccc(-c3cn4cccc([C@H](C)O)c4n3)cc2)cc1Cl [GSK-923295A]

Reply:
[24, 14, 12, 21, 18, 51, 23]

Hi team, please reply with Population Fragmented Nuclei (%) for each item in this list.
1. CCc1cc2c(cc1CC)CC(NC[C@H](O)c1ccc(O)c3[nH]c(=O)ccc13)C2 [INDACATEROL]
2. COc1cc2c(NC3CCN(C(C)C)CC3)nc(N3CCC(F)(F)CC3)nc2cc1OCCCN1CCCC1
3. CCC(=O)O[C@]1(C(=O)SCF)[C@H](C)C[C@H]2[C@@H]3C[C@H](F)C4=CC(=O)C=C[C@]4(C)[C@@]3(F)[C@@H](O)C[C@@]21C [FLUTICASONE PROPIONATE]
4. Cc1cc2c(cc1N1C(=O)c3cccc4c(CCCO)ccc(c34)C1=O)n(C)c(=O)n2C
5. CCCn1c(=O)c2[nH]c(C34CC5CC(CC3C5)C4)nc2n(CCC)c1=O [ROLOFYLLINE]

Reply:
29
18
15
19
18

Working through the 5 compounds below one at a time, give Population Fragmented Nuclei (%) for each.
1. COc1ccc(NS(=O)(=O)c2sc3ccc(Cl)cc3c2C)cc1N1CCNCC1.Cl
2. CCn1c(-c2nonc2N)nc2cnc(Oc3cccc(NC(=O)c4ccc(OCCN5CCOCC5)cc4)c3)cc21 [GSK-269962A]
3. Cl.Cl.Nc1ncnc2c1c(-c1cccc(OCc3ccccc3)c1)cn2[C@H]1C[C@@H](CN2CCC2)C1
4. Cc1nc(Cc2cccc(C(F)(F)F)c2)sc1-c1ccc(C(N)=O)nc1 [TP-024n]
5. CNc1oc(-c2cccc3ccccc23)nc1C#N

Reply:
1. 13
2. 18
3. 25
4. 18
5. 82

---

- System: HEK-293T
- test-protocol: Multiplex assay against HEK293T
- Type: toxicity, cell-based
- condition-set: human, 24 h, 1 µM, compound concentration 1 uM, replicate 2
Lab note: anything with Population Hoechst High Intensity Objects (%) at or over 5% counts as Y; the rest go in N.

compound | label-value
COc1ccc(NS(=O)(=O)c2sc3ccc(Cl)cc3c2C)cc1N1CCNCC1.Cl | N

Task item: Please indicate if the recorded Population Hoechst High Intensity Objects (%) for Cc1nc(Cc2cccc(C(F)(F)F)c2)sc1-c1ccc(C(N)=O)nc1 [TP-024n] meets or exceeds 5%.
Reply: N

Task item: Reported Population Hoechst High Intensity Objects (%) reaches at least 5% for `Cc1cc2c(cc1N1C(=O)c3cccc4c(CCCO)ccc(c34)C1=O)n(C)c(=O)n2C` ?
Reply: N

Task item: // inclusive: Population Hoechst High Intensity Objects (%) at least 5%? input: `CCOc1cc2ncc(C#N)c(Nc3ccc(OCc4cccc(F)c4)c(Cl)c3)c2cc1NC(=O)/C=C/CN(C)C`
Reply: N

---

- Test system: HEK-293T
- test-protocol: Multiplex assay against HEK293T
- Type: toxicity, cell-based
- condition-set: human, 12 h, 10 µM, compound concentration 10 uM, replicate 2
Answer each item with its documented Population Mitochondria Different-Phenotype (%).
One number for each entry, in %.

Solved cases (5 shown):
molecule | readout-unit | experimental-value
Cc1cc2c(cc1N1C(=O)c3cccc4c(CCCO)ccc(c34)C1=O)n(C)c(=O)n2C | % | 82
CCCn1c(=O)c2[nH]c(C34CC5CC(CC3C5)C4)nc2n(CCC)c1=O | % | 84
O=C(O)c1ccc2cc(-c3ccc(O)c(C45CC6CC(CC(C6)C4)C5)c3)ccc2c1 | % | 6
CNC(=O)c1cc(Oc2ccc(NC(=O)Nc3cc(C(C)(C)C)nn3-c3ccc4ncccc4c3)c(F)c2)ccn1 | % | 55
Nc1nc2c(c(N3CCNCC3)n1)CCC1=C2[C@@H]2CCCC[C@@H]2O1 | % | 88

Take each entry in turn and give its Population Mitochondria Different-Phenotype (%).
1. CCC(=O)O[C@]1(C(=O)SCF)[C@H](C)C[C@H]2[C@@H]3C[C@H](F)C4=CC(=O)C=C[C@]4(C)[C@@]3(F)[C@@H](O)C[C@@]21C [FLUTICASONE PROPIONATE]
2. O=C(O)c1ccc2c(c1)nc(Nc1cccc(Cl)c1)c1ccncc12

Reply:
1: 54; 2: 9

---

- Test system: HEK-293T
- test-protocol: Multiplex assay against HEK293T
- Format: toxicity, cell-based
- condition-set: human, 48 h, 1 µM, compound concentration 1 uM, replicate 1
Please use YES whenever Population Apoptotic (%) is not below 60%, and NO whenever it is.

Some entries whose results are on file:
compound | label-value
Nc1nc2c(c(N3CCNCC3)n1)CCC1=C2[C@@H]2CCCC[C@@H]2O1 | NO
CNc1oc(-c2cccc3ccccc23)nc1C#N | NO
Nc1ccc(C(=O)Nc2cccc(-c3nc(N4CCOCC4)c4oc5ncccc5c4n3)c2)cn1 | YES

Task item: Does `O=C(O)c1ccc2cc(-c3ccc(O)c(C45CC6CC(CC(C6)C4)C5)c3)ccc2c1` have a reported Population Apoptotic (%) of at least 60%?
Reply: NO

Task item: Could you tell me if the measured Population Apoptotic (%) of `COc1ccc(NS(=O)(=O)c2sc3ccc(Cl)cc3c2C)cc1N1CCNCC1.Cl` reaches 60% or more?
Reply: NO

Task item: Say whether CCn1c(-c2nonc2N)nc2cnc(Oc3cccc(NC(=O)c4ccc(OCCN5CCOCC5)cc4)c3)cc21 [GSK-269962A] shows Population Apoptotic (%) of 60% or more.
Reply: NO

---

Provide the recorded Population Hoechst High Intensity Objects (%) for the entries that follow.
- System: Fibroblast
- test-protocol: Multiplex assay against human fibroblast
- Type: toxicity, cell-based
- condition-set: 24 h, 1 µM, compound concentration 1 uM, replicate 1
Answers are plain numbers, in %.

Known Population Hoechst High Intensity Objects (%) results, listed for orientation:
compound | experimental-value
Cl.Cl.Nc1ncnc2c1c(-c1cccc(OCc3ccccc3)c1)cn2[C@H]1C[C@@H](CN2CCC2)C1 | 26
FC(F)c1nc2ccccc2n1-c1nc(N2CCOCC2)nc(N2CCOCC2)n1 | 12
CN(C)C/C=C/C(=O)Nc1cc2c(Nc3ccc(F)c(Cl)c3)ncnc2cc1O[C@H]1CCOC1.O=C(O)/C=C\C(=O)O.O=C(O)/C=C\C(=O)O [AFATINIB DIMALEATE] | 18

Hi team, please reply with Population Hoechst High Intensity Objects (%) for each item in this list.
1. Nc1ccc(C(=O)Nc2cccc(-c3nc(N4CCOCC4)c4oc5ncccc5c4n3)c2)cn1
2. COc1cc2c(NC3CCN(C(C)C)CC3)nc(N3CCC(F)(F)CC3)nc2cc1OCCCN1CCCC1
3. COc1ccc(NS(=O)(=O)c2sc3ccc(Cl)cc3c2C)cc1N1CCNCC1.Cl

Reply:
1. 16
2. 20
3. 11
